// reported IC50 for each item listed
- system: UniProt O95819

# moleculeSmiles, system, IC50
rows = [
    ("NC(=O)c1cccc(-c2cnc3[nH]cc(C(=O)c4ccccc4OCc4ccccc4)c3c2)c1", "UniProt O95819", "≤ 10 µM"),
    ("Clc1ncccc1Cc1c[nH]c2ncccc12", "UniProt O95819", "≤ 10 µM"),
    ("c1cncc(-c2cnc3[nH]ccc3c2)c1", "UniProt O95819", "≤ 10 µM"),
    ("c1ccc2c(Cc3c[nH]c4ncccc34)cccc2c1", "UniProt O95819", "≤ 10 µM"),
    ("c1ccc(Sc2c[nH]c3ncccc23)nc1", "UniProt O95819", "≤ 10 µM"),
    ("O=C(c1c(F)ccc(NS(=O)(=O)c2ccc(Cl)cc2)c1F)c1c[nH]c2ncccc12", "UniProt O95819", "≤ 10 µM"),
    ("O=C(c1c(F)cccc1F)c1c[nH]c2ncccc12", "UniProt O95819", "≤ 10 µM"),
    ("O=C(c1ccc2ccccc2c1)c1c[nH]c2ncccc12", "UniProt O95819", "≤ 10 µM"),
]

Form field: reported IC50 of `CCCS(=O)(=O)Nc1ccc(Cl)c(C(=O)c2c[nH]c3ncc(-c4cccnc4)cc23)c1F`
≤ 10 µM

Now try `O=C(c1cccc(F)c1)c1c[nH]c2ncccc12` .
≤ 10 µM

----------
- system: B-Raf V600E (Homo sapiens, UniProt P15056, V600E)
- Construct: P4254. pFastBacBD-CDC37 BRAF D437-K722-X, V600E; His6 with pFastBac HT leader (TEV site) (N); made in house; host or cells: Sf9 (baculovirus; chaperone CDC37 co-expressed)
- Sequence (P15056 with tags, fused parts or gaps V600E): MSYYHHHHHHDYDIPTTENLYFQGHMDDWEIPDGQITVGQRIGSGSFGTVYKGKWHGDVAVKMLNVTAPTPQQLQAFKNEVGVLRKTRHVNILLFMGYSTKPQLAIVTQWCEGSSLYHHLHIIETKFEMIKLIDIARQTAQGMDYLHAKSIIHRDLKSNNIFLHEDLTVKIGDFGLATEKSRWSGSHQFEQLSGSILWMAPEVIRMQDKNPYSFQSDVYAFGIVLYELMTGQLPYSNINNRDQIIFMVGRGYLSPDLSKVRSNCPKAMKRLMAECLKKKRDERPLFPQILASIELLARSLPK
- assayName: AlphaScreen kinase assay, B-Raf V600E
- Assay type: biochemical
- reportedConditions: read-out: IC50, activity toward kinase B-Raf V600E
pIC50: −log10 of the molar value.
This section presents compounds with their documented pIC50 values.

# compound, result
measured = [
    ("Oc1ccc(F)c(C(O)c2c[nH]c3ncc(Br)cc23)c1F (centres unmarked)", "≥ 5.00"),
    ("O=C(Nc1ccc(Cc2c[nH]c3ncccc23)cc1)c1ccccc1", "≥ 5.00"),
    ("COC(c1ccc(NCc2ccc(Cl)c(C(F)(F)F)c2)nc1)c1c[nH]c2ncccc12 (centres unmarked)", "≥ 5.00"),
    ("Cc1cc(C(=O)c2c[nH]c3ncc(-c4ccc(C(N)=O)cc4)cc23)n(C)n1", "≥ 5.00"),
    ("O=C(c1c(F)ccc(NS(=O)(=O)c2ccc(C(F)(F)F)cc2)c1F)c1c[nH]c2ncc(-c3ccc(Cl)cc3)cc12", "≥ 5.00"),
    ("Cc1ccccc1C(=O)c1c[nH]c2ncc(-c3ccsc3)cc12", "≥ 5.00"),
    ("COc1ccc(-c2c[nH]c3ncccc23)cc1OCc1ccccc1", "≥ 5.00"),
    ("FC(F)(F)c1cccc(-c2ccnc3[nH]cc(Sc4cccs4)c23)c1", "≥ 5.00"),
    ("CCCS(=O)(=O)Nc1cccc(C(=O)c2c[nH]c3ncccc23)c1F", "≥ 5.00"),
    ("CC(C)(C)OC(=O)N(Cc1ccc(Cl)cc1)c1ccc(C(=O)c2c[nH]c3ncccc23)cn1", "≥ 5.00"),
]

Please give the measured pIC50 for this compound: `COc1ccc(Cc2nc(-c3ccnc4[nH]ccc34)no2)cc1`
≥ 5.00

// same read-out, input: `Cc1nc2ccc(Nc3ccnc4[nH]ccc34)cc2s1`
≥ 5.00

Next up: `COc1ccc(OC)c(S(=O)(=O)Nc2ccc(F)c(C(=O)c3c[nH]c4ncccc34)c2F)c1`
≥ 5.00

# repeat for `CCN(CC)c1ccc(Nc2cnc3[nH]ccc3c2)cc1`
≥ 5.00

Now this one: `O=C(c1c(F)ccc(NS(=O)(=O)c2ccc(C(F)(F)F)cc2)c1F)c1c[nH]c2ncc(Cl)cc12`
≥ 5.00

Another compound to check: `CCCC(=O)Nc1ccc(F)c(Cc2c[nH]c3ncc(OC)cc23)c1F`
≥ 5.00

// query: `CCCS(=O)(=O)Nc1ccc(F)c(C(=O)c2c[nH]c3ncc(-c4cnn(C)c4)cc23)c1F`
≥ 5.00

----------
- system: TrkA (Homo sapiens, UniProt P04629)
- Sequence (P04629 33-796): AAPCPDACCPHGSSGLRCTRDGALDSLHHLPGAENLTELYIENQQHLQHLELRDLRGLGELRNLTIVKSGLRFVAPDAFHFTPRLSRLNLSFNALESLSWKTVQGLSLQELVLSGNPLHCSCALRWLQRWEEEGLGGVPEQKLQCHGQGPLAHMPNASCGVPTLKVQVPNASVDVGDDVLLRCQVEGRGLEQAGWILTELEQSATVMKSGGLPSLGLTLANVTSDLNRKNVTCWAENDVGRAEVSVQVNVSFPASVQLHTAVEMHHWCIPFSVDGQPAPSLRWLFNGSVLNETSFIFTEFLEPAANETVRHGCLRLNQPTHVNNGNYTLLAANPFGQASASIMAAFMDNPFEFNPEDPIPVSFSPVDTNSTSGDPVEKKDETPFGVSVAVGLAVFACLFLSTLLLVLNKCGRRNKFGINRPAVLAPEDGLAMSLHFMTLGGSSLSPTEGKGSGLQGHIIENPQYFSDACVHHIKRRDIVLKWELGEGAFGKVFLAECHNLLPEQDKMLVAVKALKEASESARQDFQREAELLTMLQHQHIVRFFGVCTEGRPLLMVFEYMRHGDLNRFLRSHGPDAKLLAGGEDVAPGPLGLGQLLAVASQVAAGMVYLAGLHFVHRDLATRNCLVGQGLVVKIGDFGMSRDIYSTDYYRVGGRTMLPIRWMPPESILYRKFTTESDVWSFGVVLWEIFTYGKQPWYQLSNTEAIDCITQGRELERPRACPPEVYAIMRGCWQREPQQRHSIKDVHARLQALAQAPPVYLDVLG
readoutLabel: IC50

Write down the reported IC50 of CCCS(=O)(=O)Nc1ccc(F)c(C(OC)c2c[nH]c3ncc(OC)cc23)c1F (stereo not shown) , test system: TrkA (Homo sapiens, UniProt P04629).
≤ 10 µM

----------
- system: FGFR1 (Homo sapiens, UniProt P11362, C488A/C584S)
- Construct: P1351.pET N6 BI-PTP FGFR A458-E765-X C488A, C584S; made in house; host or cells: E. coli (PTP1B co-expressed)
- Sequence (P11362 458-765 C488A/C584S): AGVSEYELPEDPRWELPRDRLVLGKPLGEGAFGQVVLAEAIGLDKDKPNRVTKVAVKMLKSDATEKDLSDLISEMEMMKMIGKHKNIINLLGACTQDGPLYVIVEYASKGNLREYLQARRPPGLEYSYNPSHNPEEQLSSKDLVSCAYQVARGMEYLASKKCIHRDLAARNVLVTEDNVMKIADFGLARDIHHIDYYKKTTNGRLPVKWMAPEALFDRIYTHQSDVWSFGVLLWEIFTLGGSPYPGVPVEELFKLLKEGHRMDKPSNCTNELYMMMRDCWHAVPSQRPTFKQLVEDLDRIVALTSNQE
- assayName: AlphaScreen kinase assay, FGFR1
- Type: biochemical
- reportedConditions: read-out: IC50, activity toward kinase FGFR
readoutLabel: IC50

# annotated cases, reported IC50 shown
# molecule, system, IC50
data = [
    ("Fc1ccc(OCc2ccccc2)c(F)c1Cc1c[nH]c2ncc(-c3cccnc3)cc12", "FGFR1 (Homo sapiens, UniProt P11362, C488A/C584S)", "≤ 10 µM"),
    ("CS(=O)(=O)Nc1cccc(-c2cnc3[nH]cc(C(=O)c4c(F)ccc(NS(C)(=O)=O)c4F)c3c2)c1", "FGFR1 (Homo sapiens, UniProt P11362, C488A/C584S)", "≤ 10 µM"),
    ("CS(=O)(=O)Nc1cccc(-c2cnc3[nH]ccc3c2)c1", "FGFR1 (Homo sapiens, UniProt P11362, C488A/C584S)", "≤ 10 µM"),
    ("OC(c1c(F)ccc(F)c1F)c1c[nH]c2ncc(-c3cccnc3)cc12 (stereo not shown)", "FGFR1 (Homo sapiens, UniProt P11362, C488A/C584S)", "≤ 10 µM"),
    ("CCCS(=O)(=O)Nc1ccc(F)c(C(=O)c2c[nH]c3ncc(-c4cccc(C(=O)O)c4)cc23)c1F", "FGFR1 (Homo sapiens, UniProt P11362, C488A/C584S)", "≤ 10 µM"),
    ("Nc1cccc(-c2cnc3[nH]cc(Cc4ccccc4F)c3c2)c1", "FGFR1 (Homo sapiens, UniProt P11362, C488A/C584S)", "≤ 10 µM"),
    ("O=C(Nc1ccc(F)c(C(=O)c2c[nH]c3ncc(-c4cccnc4)cc23)c1F)NC1CCCC1", "FGFR1 (Homo sapiens, UniProt P11362, C488A/C584S)", "≤ 10 µM"),
    ("CS(=O)(=O)c1cccc(-c2cnc3[nH]cc(Cc4c(F)ccc(N)c4F)c3c2)c1", "FGFR1 (Homo sapiens, UniProt P11362, C488A/C584S)", "≤ 10 µM"),
]

For the record OC(c1ccccc1F)c1c[nH]c2ncc(Br)cc12 (stereo not shown) , what value of IC50 is listed for FGFR1 (Homo sapiens, UniProt P11362, C488A/C584S)?
≤ 10 µM

Try this molecule next: `CC(C)c1ccc(Cc2c[nH]c3ncccc23)cn1`
≤ 10 µM

And then `O=C(c1c(F)ccc(NS(=O)(=O)c2cccs2)c1F)c1c[nH]c2ncc(Cl)cc12` , what is it?
≤ 10 µM

Follow-up item: `c1ccc(CNc2ccc(Cc3c[nH]c4ncccc34)cc2)cc1`
≤ 10 µM

What do you have for `COc1cnc2[nH]cc(C(=O)c3c(F)ccc(NS(=O)(=O)c4ccc(C(F)(F)F)cc4)c3F)c2c1` ?
≤ 10 µM

Also check `COc1cccc(Cc2c[nH]c3ncc(-c4ccc(Cl)s4)cc23)c1`
≤ 10 µM

Can you handle `O=C(c1c(Cl)cccc1Cl)c1c[nH]c2ncc(-c3cccnc3)cc12` next?
≤ 10 µM

Param item: `Clc1ccc(Cc2c[nH]c3ncccc23)cc1`
≤ 10 µM

Now consider `CCCS(=O)(=O)Nc1ccc(F)c(C(=O)c2c[nH]c3ncc(-c4ccc(F)cc4)cc23)c1F` and answer again.
≤ 10 µM

Also check `COc1cccc(Cc2c[nH]c3ncc(-c4cccc(OC(F)(F)F)c4)cc23)c1F`
≤ 10 µM

----------
# Kdr (Homo sapiens, UniProt P35968): pIC50 values follow
# Sequence (P35968 20-1356): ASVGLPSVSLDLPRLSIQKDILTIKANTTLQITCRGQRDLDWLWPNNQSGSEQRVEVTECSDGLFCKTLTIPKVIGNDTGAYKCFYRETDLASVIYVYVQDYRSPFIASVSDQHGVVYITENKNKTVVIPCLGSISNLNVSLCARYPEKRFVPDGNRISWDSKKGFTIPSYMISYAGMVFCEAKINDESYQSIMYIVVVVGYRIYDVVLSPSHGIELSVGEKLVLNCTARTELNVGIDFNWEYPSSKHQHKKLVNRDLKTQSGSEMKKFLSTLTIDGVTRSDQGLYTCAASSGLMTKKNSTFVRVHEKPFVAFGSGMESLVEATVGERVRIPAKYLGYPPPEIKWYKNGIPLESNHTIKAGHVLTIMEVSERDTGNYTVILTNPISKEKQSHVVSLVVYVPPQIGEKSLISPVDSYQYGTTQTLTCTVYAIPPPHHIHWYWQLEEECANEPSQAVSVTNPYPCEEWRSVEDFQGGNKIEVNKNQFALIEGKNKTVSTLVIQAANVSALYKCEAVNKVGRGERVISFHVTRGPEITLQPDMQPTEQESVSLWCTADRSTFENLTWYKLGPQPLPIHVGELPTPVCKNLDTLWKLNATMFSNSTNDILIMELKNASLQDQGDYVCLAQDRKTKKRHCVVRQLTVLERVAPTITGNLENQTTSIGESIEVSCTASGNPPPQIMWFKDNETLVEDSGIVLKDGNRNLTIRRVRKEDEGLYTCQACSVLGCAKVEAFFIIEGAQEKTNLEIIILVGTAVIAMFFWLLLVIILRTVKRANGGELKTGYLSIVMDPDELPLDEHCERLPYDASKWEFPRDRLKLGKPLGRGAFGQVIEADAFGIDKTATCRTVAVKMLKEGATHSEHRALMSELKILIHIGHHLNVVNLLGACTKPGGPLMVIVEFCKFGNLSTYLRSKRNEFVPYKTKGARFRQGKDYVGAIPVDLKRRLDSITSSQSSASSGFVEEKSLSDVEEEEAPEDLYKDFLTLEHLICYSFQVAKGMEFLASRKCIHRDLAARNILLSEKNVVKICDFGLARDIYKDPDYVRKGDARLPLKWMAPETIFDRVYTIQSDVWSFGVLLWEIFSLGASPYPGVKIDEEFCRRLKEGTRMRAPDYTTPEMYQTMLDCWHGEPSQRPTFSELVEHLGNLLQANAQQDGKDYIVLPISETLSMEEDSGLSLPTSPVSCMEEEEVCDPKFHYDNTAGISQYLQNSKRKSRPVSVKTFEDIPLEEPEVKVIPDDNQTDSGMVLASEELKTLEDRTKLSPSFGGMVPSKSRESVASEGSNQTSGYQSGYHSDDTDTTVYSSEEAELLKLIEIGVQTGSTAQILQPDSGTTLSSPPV
pIC50: −log10 of the molar value.

# moleculeSmiles, pIC50
rows = [
    ("COc1ccc(C(=O)c2c[nH]c3ncc(-c4cccc(/C=C/C(=O)O)c4)cc23)c(Cl)c1", "≥ 5.00"),
    ("Cc1ccccc1C(=O)c1c[nH]c2ncc(-c3cccnc3)cc12", "≥ 5.00"),
]

Next:
What does the record list as pIC50 for `CS(=O)(=O)Nc1ccc(F)c(C(=O)c2c[nH]c3ncc(-c4ccccc4)cc23)c1F` ?
≥ 5.00

----------
- system: Abl (Homo sapiens)
- Sequence (P00519 with tags, fused parts or gaps): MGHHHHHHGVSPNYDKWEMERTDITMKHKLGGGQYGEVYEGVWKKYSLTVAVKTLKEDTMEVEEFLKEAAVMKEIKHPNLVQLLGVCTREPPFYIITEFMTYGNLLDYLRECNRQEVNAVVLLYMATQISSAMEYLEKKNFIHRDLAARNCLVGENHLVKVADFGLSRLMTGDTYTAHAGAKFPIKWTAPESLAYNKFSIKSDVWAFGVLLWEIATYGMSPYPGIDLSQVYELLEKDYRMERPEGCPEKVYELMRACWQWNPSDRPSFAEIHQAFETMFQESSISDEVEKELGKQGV
readoutLabel: IC50

Here is how some compounds turned out for IC50.
# moleculeSmiles, result
data = [
    ("O=C(c1cccc(F)c1)c1c[nH]c2nccc(-c3cc(F)cc(F)c3)c12", "≤ 10 µM"),
    ("O=C(c1cccc(O)c1)c1c[nH]c2ncc(-c3cccnc3)cc12", "≤ 10 µM"),
    ("CS(=O)(=O)CCNC(=O)c1ccc(S(=O)(=O)NCc2c[nH]c3ncccc23)cc1", "≤ 10 µM"),
    ("Cc1ccccc1C(=O)c1c[nH]c2ncc(-c3ccsc3)cc12", "≤ 10 µM"),
    ("O=C(c1cccc(O)c1)c1c[nH]c2nccc(Cl)c12", "≤ 10 µM"),
    ("NC(=O)c1ccc(-c2cnc3[nH]cc(C(=O)c4cccc(O)c4)c3c2)cc1", "≤ 10 µM"),
]

Name the recorded IC50 for `COc1cccc(Cc2c[nH]c3nccc(Br)c23)c1` .
≤ 10 µM

Another compound to check: `OCCOc1ccc(F)c(Cc2c[nH]c3ncc(-c4cccnc4)cc23)c1F`
≤ 10 µM

Source listed as patent US8415469B2.
